Tested on: Host vs Graft Reaction in Mice
Experiment: Inhibitory effects of test compounds on host vs graft reaction in mice (popliteal lymph node weight)
Type: in vivo, C3H/HeN mice
Settings: Mus musculus, ip, dose 0.03 mg/kg
Where a name gives a salt, the structure may show the parent alone.
Quick reference for inhibition in vivo at 0.03 mg/kg among some molecules

MOLECULE	inhibition in vivo at 0.03 mg/kg (%)
NC(CO)(CCCO)CCCc1ccc(Sc2cccc(OCc3ccccc3)c2)cc1Cl (stereo not shown) [Example 151, hydrochloride]	65
CCC(N)(CO)CCc1ccc(Sc2cccc(OCc3ccccc3)c2)cc1Cl (single isomer, unassigned; (-))	63
CCC(N)(CO)CCCc1ccc(Sc2cccc(OCc3ccccc3)c2)cc1Cl (single isomer, unassigned; (+))	71
CCCC(N)(CO)CCCc1ccc(Sc2cccc(OCc3ccccc3)c2)cc1Cl (stereo not shown)	54

// provenance: patent US7763752B2
